# test summary: Caco2 permeability (bi-directional)
# Format: in vitro ADME, human
# test conditions: human, pH 7.4; Caco-2, apical to basolateral; read-out: Papp (A2B)
measured property: Papp A→B at 1 h, 10 µM (×10⁻⁶ cm/s)

Consider the worked cases shown below.
> print(dat)
                                   molecule  scale.unit  recorded.result
1  O=C(Nc1nc2cccc(-c3ccc(OC4CCCC4)cc3)n2n1)C1CC1 [Compound 40]  ×10⁻⁶ cm/s             44.9
2  O=C(Nc1nc2cccc(-c3ccc(C(=O)N4CCC(F)(F)C4)cc3)n2n1)C1CC1 [Compound 271]  ×10⁻⁶ cm/s                4
3  O=C(Nc1nc2cccc(-c3ccc(CC(=O)N4CCC(C(F)(F)F)CC4)cc3)n2n1)C1CC1 [Compound 319]  ×10⁻⁶ cm/s             11.2
4  O=C(Nc1nc2cccc(-c3ccc(CN4CCCC(F)C4)cc3)n2n1)C1CC1 (centres unmarked) [Compound 280]  ×10⁻⁶ cm/s             11.4
5  O=C(CCc1ccccc1)Nc1ccc(-c2cccc3nc(NC(=O)C4CC4)nn23)cc1 [Compound 109]  ×10⁻⁶ cm/s               19

1 = CC1(C)CN(C(=O)c2ccc(-c3cccc4nc(NC(=O)C5CC5)nn34)cc2)C1 [Compound 330]
2 = O=C(Nc1nc2cccc(-c3ccc(C(=O)N4CCS(=O)(=O)CC4)cc3)n2n1)C1CC1 [Compound 207]
Thinking about recorded Papp A→B at 1 h, 10 µM values, which is higher, 1 or 2 ? I would appreciate it if you answered with the label of your choice.
1
